target: yeast α-glucosidase (Saccharomyces cerevisiae, UniProt P53341); construct: purchased Sigma-Aldrich; test: In vitro α-glucosidase inhibition assay; format: biochemical; settings: SAR discussion
Sequence (P53341 whole entry): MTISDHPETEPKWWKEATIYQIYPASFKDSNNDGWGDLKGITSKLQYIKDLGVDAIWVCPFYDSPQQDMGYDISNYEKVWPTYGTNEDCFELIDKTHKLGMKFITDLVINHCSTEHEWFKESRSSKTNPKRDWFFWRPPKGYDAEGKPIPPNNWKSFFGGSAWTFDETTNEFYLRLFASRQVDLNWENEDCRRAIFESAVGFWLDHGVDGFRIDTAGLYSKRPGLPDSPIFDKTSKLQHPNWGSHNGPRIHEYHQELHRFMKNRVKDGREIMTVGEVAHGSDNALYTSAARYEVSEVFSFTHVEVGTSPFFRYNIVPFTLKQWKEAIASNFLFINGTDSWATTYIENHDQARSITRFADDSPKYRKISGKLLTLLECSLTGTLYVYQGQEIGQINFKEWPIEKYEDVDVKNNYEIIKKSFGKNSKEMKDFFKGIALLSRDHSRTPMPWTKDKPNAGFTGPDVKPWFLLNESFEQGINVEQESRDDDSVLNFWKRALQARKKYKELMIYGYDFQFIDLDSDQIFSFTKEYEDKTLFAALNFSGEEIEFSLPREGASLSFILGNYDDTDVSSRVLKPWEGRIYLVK
Readout kind: inhibitory activity against α-glucosidase (in words)

>>> recorded_value("O=c1oc2ccccc2c(O)c1C(c1cccc(O)c1)c1c[nH]c2ccccc12 (stereo not drawn)")
"loss of effect"
>>> recorded_value("O=c1oc2ccccc2c(O)c1C(c1cccc(Cl)c1)c1c[nH]c2ccccc12 (stereo not drawn)")
"loss of effect"
>>> recorded_value("O=c1oc2ccccc2c(O)c1C(c1ccc(O)cc1)c1c[nH]c2ccccc12 (stereo not drawn)")
"loss of effect"

* * *

What follows is a collection of IC50 values obtained with yeast α-glucosidase (Saccharomyces cerevisiae, UniProt P53341).
// note: answer is a bare numeric in µM

Solved entries (count: 3):
>>> recorded_value("O=c1oc2ccccc2c(O)c1C(c1ccccc1)c1c[nH]c2ccccc12 (centres unmarked)")
118
>>> recorded_value("O=c1oc2ccccc2c(O)c1C(c1cccc([N+](=O)[O-])c1)c1c[nH]c2ccccc12 (centres unmarked)")
180
>>> recorded_value("O=c1oc2ccccc2c(O)c1C(c1ccc(Cl)cc1)c1c[nH]c2ccccc12 (centres unmarked)")
230

Now look at this one.
The reported IC50 of the compound COc1ccc(C(c2c(O)c3ccccc3oc2=O)c2c[nH]c3ccccc23)cc1 (centres unmarked) was 170
